log10 of Kd values for the binders below.
# TARGET_DESC: human DLL3 protein (extracellular segment, His tag) (human) (UniProt Q9NYJ7)
# Sequence (Q9NYJ7 27-492): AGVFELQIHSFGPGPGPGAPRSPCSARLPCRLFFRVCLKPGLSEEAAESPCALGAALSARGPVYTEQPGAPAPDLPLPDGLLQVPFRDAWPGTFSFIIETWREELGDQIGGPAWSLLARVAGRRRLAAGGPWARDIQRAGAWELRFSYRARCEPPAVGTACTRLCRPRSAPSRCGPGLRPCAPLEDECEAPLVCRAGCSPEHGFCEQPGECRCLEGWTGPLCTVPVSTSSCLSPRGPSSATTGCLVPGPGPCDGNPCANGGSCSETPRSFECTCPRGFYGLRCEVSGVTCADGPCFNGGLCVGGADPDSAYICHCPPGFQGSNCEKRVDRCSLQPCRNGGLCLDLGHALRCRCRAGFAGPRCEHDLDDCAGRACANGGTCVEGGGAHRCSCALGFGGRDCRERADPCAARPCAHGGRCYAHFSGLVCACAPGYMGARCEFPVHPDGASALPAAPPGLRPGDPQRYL
# ASSAY_INFO: SPR (Biacore 8K), antibody captured on Protein A chip, DLL3 antigen in solution, 1:1 Langmuir fit
EXPERIMENTAL_ENDPOINT: log10 of Kd (log10 of the value in nM)

binder="Hab006VL4VH1-hFc (scFv, part only; not given: scFv linker and human IgG1 Fc, V domains shown, not shown: another chain or arm of the molecule; a dimerising Fc or GST; small tags and cut ends) VL: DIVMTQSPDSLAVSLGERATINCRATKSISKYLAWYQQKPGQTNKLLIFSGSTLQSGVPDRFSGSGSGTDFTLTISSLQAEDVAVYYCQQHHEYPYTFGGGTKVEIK VH: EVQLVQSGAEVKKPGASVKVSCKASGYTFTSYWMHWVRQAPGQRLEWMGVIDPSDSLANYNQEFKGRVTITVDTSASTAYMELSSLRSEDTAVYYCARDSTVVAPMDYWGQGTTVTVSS" obs_value=-0.54
binder="mab014 scFv-hFc (Fc fusion, part only; not given: Linker and human IgG1 Fc, not shown: a dimerising Fc or GST) scFv, part: DIQMTQSSSSFSVSLGDRVTITCKASEDIYNRLAWYQQKPGNTPRLLISGATSLETGVPSRFSGSGSGKDFTLSITSLQTEDVATYYCQQYWSLPWTFGGGTKLEIKEVQLHQSGPELVKPGTSVKISCKASGYTFTDYYMNWVKQSHGKSLEWIGDINPNHGDTGYNQKFTGKATLTVDKSSSTAYMELRSLTSEDSAVYYCARNFFYYGTTYGWYFDVWGTGTTVTVSS" obs_value=-1.26
binder="Hab013VL2VH2a-hFc (scFv, part only; not given: scFv linker and human IgG1 Fc, V domains shown, not shown: another chain or arm of the molecule; a dimerising Fc or GST; small tags and cut ends) VL: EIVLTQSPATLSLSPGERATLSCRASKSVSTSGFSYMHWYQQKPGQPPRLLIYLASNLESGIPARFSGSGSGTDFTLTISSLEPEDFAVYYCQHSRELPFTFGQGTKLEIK VH: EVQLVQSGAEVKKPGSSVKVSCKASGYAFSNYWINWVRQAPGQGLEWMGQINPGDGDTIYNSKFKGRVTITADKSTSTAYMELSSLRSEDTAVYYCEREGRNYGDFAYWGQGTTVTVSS" obs_value=-0.95
binder="Hab006VL4VH2-hFc (scFv, part only; not given: scFv linker and human IgG1 Fc, V domains shown, not shown: another chain or arm of the molecule; a dimerising Fc or GST; small tags and cut ends) VL: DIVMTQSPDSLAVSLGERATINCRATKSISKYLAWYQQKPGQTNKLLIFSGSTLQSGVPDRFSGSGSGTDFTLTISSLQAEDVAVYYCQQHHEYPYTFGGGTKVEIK VH: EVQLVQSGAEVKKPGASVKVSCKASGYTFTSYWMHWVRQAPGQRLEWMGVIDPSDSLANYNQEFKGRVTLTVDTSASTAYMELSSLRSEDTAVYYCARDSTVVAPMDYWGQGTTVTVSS" obs_value=-0.40
binder="mab006 scFv-hFc (Fc fusion, part only; not given: linker and human IgG1 Fc, not shown: a dimerising Fc or GST) scFv, part: DVQITQSPSYLAASPGETITINCRATKSISKYLAWYQEKPGKTNKLLIFSGSTLQSGIPSRFRGSGSGTDFTLTISSLEPEDFAMYYCQQHHEYPYTFGGGTKLEIKQVQLQQPGAELVRPGTSVKLSCKASGYTFTSYWMHWVRQRPGQGLEWIGVIDPSDSLANYNQEFKGKATLTVDTSSSTAYMQLSSLTSEDSAVYYCARDSTVVAPMDYWGQGTSVTVSS" obs_value=0.10
binder="Hab015VL4VH1b-hFc (scFv, part only; not given: VL-VH linker and human IgG1 Fc, V domains shown, not shown: another chain or arm of the molecule; a dimerising Fc or GST; small tags and cut ends) VL: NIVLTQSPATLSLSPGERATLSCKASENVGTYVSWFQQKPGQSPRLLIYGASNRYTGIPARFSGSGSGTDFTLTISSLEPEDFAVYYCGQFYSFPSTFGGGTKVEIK VH: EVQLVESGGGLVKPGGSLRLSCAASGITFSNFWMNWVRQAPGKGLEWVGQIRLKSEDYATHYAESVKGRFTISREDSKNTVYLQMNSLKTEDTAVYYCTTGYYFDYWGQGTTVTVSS" obs_value=-1.71
